Measured on: human M1 receptor (hCHRM1) (Homo sapiens)
Construct: expressed in transfected cells
Sequence (P11229 whole entry): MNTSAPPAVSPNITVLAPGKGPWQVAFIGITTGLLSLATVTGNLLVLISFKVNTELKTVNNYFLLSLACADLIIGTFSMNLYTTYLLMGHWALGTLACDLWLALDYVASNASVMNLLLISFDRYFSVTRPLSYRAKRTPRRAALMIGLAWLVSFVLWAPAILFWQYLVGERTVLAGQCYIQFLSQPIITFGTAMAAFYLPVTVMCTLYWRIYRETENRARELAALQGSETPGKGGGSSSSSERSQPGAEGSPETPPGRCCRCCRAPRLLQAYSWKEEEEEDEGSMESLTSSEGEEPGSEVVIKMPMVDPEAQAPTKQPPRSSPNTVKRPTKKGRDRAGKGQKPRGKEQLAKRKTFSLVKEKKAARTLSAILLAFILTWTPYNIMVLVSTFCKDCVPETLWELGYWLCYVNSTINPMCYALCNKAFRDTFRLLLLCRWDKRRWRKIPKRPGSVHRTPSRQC
Protocol details: Measurement of M1 receptor positive allosteric modulator (M1PAM) activity, calcium fluorescence in CHO-K1 cells
Assay type: cell-based
Reported conditions: 10 μM test compound with acetylcholine at EC20; 100% = acetylcholine 1 μM, 0% = DMSO
Hi there, I'd appreciate the recorded activity (%) at 10 μM for every entry that follows.
Provide the reading as a plain figure in %.

Bench note: what activity (%) at 10 μM did CCn1cc(-c2ccc(CN3Cc4ccnc(OCC(F)F)c4C3=O)cc2)cn1 show?
105

Bench note: what activity (%) at 10 μM did CCC(F)(F)COc1ncnc2c1C(=O)N(Cc1ccc(-c3cnn(C)c3)cc1)C2 show?
98

Bench note: what activity (%) at 10 μM did Cn1cc(-c2ccc(CN3Cc4ccnc(OCC(C)(F)F)c4C3=O)c(F)c2)nn1 show?
90

Bench note: what activity (%) at 10 μM did O=C1c2c(ccnc2OCC(F)F)CN1Cc1ccc(-c2cnn(CC(F)(F)F)c2)cc1F show?
101

Bench note: what activity (%) at 10 μM did CCn1cc(-c2ccc(CN3Cc4ccnc(OCC(F)F)c4C3=O)c(F)c2)cn1 show?
104

Bench note: what activity (%) at 10 μM did CCC(F)(F)COc1nccc2c1C(=O)N(Cc1ccc(-c3cnnc(C)c3)cc1)C2 show?
98

Bench note: what activity (%) at 10 μM did Cc1nn(C)cc1-c1ccc(CN2Cc3ncnc(OCC(C)(F)F)c3C2=O)cc1 show?
100

Bench note: what activity (%) at 10 μM did CCC(F)(F)COc1nccc2c1C(=O)N(Cc1ccc(-c3cnn(C)c3)cc1F)C2 show?
94

Bench note: what activity (%) at 10 μM did CC(F)(F)COc1nccc2c1C(=O)N(Cc1ccc(-c3ccns3)cc1)C2 show?
91

Bench note: what activity (%) at 10 μM did CCn1cc(-c2ccc(CN3Cc4ncnc(OCC(F)(F)F)c4C3=O)c(F)c2)cn1 show?
98

Bench note: what activity (%) at 10 μM did Cn1cc(-c2ccc(CN3Cc4ncnc(OCC(F)(F)F)c4C3=O)cc2)nn1 show?
95

Bench note: what activity (%) at 10 μM did CCn1cc(-c2ccc(CN3Cc4ncnc(OCC(F)(F)CC)c4C3=O)s2)cn1 show?
103

Bench note: what activity (%) at 10 μM did CCC(F)(F)COc1nccc2c1C(=O)N(Cc1ccc(-c3cn(C)nc3C)cc1F)C2 show?
90

Bench note: what activity (%) at 10 μM did Cc1nn(C)cc1-c1ccc(CN2Cc3ncnc(OCC(F)F)c3C2=O)s1 show?
100

Bench note: what activity (%) at 10 μM did CC(F)(F)COc1nccc2c1C(=O)N(Cc1ccc(-c3ccoc3)cc1F)C2 show?
101

Bench note: what activity (%) at 10 μM did CCC(F)(F)COc1ncnc2c1C(=O)N(Cc1ccc(-c3cn(C)nc3C)cc1)C2 show?
109

Bench note: what activity (%) at 10 μM did CCC(F)(F)COc1nccc2c1C(=O)N(Cc1ccc(-c3cnn(CC(F)F)c3)cc1)C2 show?
94

Each recorded value in this set is attributed to patent US10208046B2.
